SYSTEM TESTED: OATP1B3 (Homo sapiens)
Sequence (Q9NPD5 whole entry): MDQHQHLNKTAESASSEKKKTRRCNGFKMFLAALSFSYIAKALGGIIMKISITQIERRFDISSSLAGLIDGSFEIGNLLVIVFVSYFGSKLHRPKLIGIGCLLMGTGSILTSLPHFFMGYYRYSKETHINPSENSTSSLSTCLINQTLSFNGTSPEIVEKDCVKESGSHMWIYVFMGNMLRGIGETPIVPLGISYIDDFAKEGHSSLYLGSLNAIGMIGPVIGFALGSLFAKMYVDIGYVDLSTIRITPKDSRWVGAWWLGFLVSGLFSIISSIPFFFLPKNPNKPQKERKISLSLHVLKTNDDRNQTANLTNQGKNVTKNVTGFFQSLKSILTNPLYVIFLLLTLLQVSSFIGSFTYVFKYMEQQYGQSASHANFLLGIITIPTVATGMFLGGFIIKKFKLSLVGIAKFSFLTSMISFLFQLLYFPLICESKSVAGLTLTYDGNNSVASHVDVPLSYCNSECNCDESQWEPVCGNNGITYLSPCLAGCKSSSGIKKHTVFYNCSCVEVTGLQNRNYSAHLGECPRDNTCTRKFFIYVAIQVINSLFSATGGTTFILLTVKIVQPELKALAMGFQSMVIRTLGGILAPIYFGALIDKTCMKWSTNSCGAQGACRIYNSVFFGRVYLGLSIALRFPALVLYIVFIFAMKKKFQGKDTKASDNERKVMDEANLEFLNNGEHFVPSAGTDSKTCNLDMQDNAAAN
PROTOCOL NOTES: cell-based
OBSERVABLE: IC50 (µM)
Please give a number only; it is taken to be in µM.

Task: Give reported IC50 value for CCCC(=O)Nc1ncnc2c1ncn2[C@@H]1O[C@@H]2COP(=O)(O)O[C@H]2[C@H]1OC(=O)CCC [DB-cAMP]
Output: 119

Task: Give reported IC50 value for CO[C@@H]1[C@H](O)[C@@H](CO)O[C@H]1n1c(Sc2ccc(Cl)cc2)nc2c(N)ncnc21 [8-pCPT-2′-O-Me-Ado]
Output: 17.2

Task: Give reported IC50 value for Nc1ncnc2c1nc(Sc1ccc(Cl)cc1)n2[C@@H]1O[C@H](CO)[C@@H](O)[C@H]1O [Analog 8-pCPT-Ado, 8-(4-Chlorophenylthio)adenosine]
Output: 150

====

SYSTEM TESTED: UniProt Q9NPD5
Assignment: determine reported IC50 for the given compounds.

Task: Give reported IC50 value for CCCC(=O)Nc1ncnc2c1ncn2[C@@H]1O[C@@H]2COP(=O)(O)O[C@H]2[C@H]1O [Analog 6-MB-cAMP]
Output: > 300 µM

Task: Give reported IC50 value for Nc1nc2c(nc(Br)n2[C@@H]2O[C@@H]3COP(=O)(O)O[C@H]3[C@H]2O)c(=O)[nH]1 [Analog 8-Br-cGMP]
Output: > 300 µM

Task: Give reported IC50 value for CO[C@H]1C2OP(O)(=S)OC[C@H]2O[C@H]1n1c(Sc2ccc(Cl)cc2)nc2c(N)ncnc21 (single isomer, unassigned) [Sp-8-pCPT-2′-O-Me-cAMPS]
Output: 8.7 µM

Task: Give reported IC50 value for COC1C2OP(O)(=S)OCC2OC1n1c(Sc2ccc(Cl)cc2)nc2c(N)ncnc21 (single isomer, unassigned) [Rp-8-pCPT-2′-O-Me-cAMPS]
Output: > 300 µM

Task: Give reported IC50 value for Nc1nc2c(ncn2[C@@H]2O[C@@H]3COP(=O)(O)O[C@H]3[C@H]2O)c(=O)[nH]1 [cGMP]
Output: > 300 µM

Task: Give reported IC50 value for CO[C@@H]1[C@@H]2OP(=O)(O)OC[C@H]2O[C@H]1n1c(Sc2ccc(Cl)cc2)nc2c(N)ncnc21 [8-pCPT-2′-O-Me-cAMP]
Output: 12.6 µM

====

For primary rat hepatocytes, measured Effect on Nod-induced hepatocyte apoptosis (Fig. 2A) is reported for the entries below.
OBSERVABLE: Effect on Nod-induced hepatocyte apoptosis (Fig. 2A)

{"COMPOUND": "CO[C@@H]1[C@@H]2OP(=O)(O)OC[C@H]2O[C@H]1n1c(Sc2ccc(Cl)cc2)nc2c(N)ncnc21", "READING": "clear inhibition"}
{"COMPOUND": "Nc1ncnc2c1nc(Sc1ccc(Cl)cc1)n2[C@@H]1O[C@@H]2COP(=O)([O-])O[C@H]2[C@H]1O.[Na+]", "READING": "clear inhibition"}
{"COMPOUND": "CO[C@H]1C2OP(O)(=S)OC[C@H]2O[C@H]1n1c(Sc2ccc(Cl)cc2)nc2c(N)ncnc21 (single isomer, unassigned)", "READING": "clear inhibition"}
